Entries below carry reported pKi on Carbonic anhydrase 9 (Homo sapiens).
For clarity, pKi is expressed as the negative log10 of concentration in mol/L.

A selection of reference data follows.
INSERT INTO measurements (compound, measured_parameter, endpoint_result) VALUES
  ('O=c1oc2c(O)c(O)cc3c(=O)oc4c(O)c(O)cc1c4c23 [ELLAGIC ACID]', 'pKi', 5.03),
  ('O=C(O)c1cc(O)c(O)c(O)c1 [GALLIC ACID]', 'pKi', 5.16),
  ('O=c1c(O)c(-c2ccc(O)c(O)c2)oc2cc(O)cc(O)c12 [QUERCETIN]', 'pKi', 5.15);

Consider now this further compound.
Which pKi is reported for this compound? COc1cc(/C=C/C(=O)O)ccc1O [FERULATE]
5.01
